# target-under-test: TTP-dependent kinase(s) (TTP-kinase, TTP-43K-kinase)
# experiment-description: TTP-dependent phosphorylation of 43K rapsyn by endogenous kinase(s) in nAChR-rich postsynaptic membranes
# cond: FIG. 3A; preincubation with cold triphosphate; read-out: IC50, inhibition of TTP-dependent phosphorylation of 43K rapsyn
pIC50: −log10 of the molar value.
measured-endpoint: pIC50

compound="Nc1nc2c(ncn2[C@@H]2O[C@H](COP(=O)(O)OP(=O)(O)OP(=O)(O)O)[C@@H](O)[C@H]2O)c(=O)[nH]1 [GTP]" result=~3.00
compound="Nc1ncnc2c1ncn2[C@@H]1O[C@H](COP(=O)(O)OP(=O)(O)OP(=O)(O)O)[C@@H](O)[C@H]1O [ATP, adenosine triphosphate]" result=~3.30
